assayed-system: T1, Human MuSK (R&D Systems, cat. 10189-MK, histidine tag) (human, UniProt O15146 24-495)
T1 construct: Bought protein; also called human monomeric MuSK-6xhis; not shown: histidine tag (6xhis)
T1 sequence: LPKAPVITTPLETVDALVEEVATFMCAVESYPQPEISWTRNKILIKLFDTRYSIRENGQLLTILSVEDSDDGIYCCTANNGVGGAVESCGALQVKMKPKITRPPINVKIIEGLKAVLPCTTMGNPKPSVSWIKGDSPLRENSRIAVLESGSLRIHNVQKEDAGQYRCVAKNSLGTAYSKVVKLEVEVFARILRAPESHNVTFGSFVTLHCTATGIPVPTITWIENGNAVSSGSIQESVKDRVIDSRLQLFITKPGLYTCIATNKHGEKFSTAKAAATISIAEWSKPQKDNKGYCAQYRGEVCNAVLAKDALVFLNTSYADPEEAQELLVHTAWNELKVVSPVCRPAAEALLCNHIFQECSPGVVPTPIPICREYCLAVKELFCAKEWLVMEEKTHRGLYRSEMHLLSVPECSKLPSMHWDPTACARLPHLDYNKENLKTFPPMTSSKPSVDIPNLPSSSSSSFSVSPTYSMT
experiment-description: SPR (Biacore), MuSK-coated chip presaturated with 500 nM 4D3 (competitor)
# reported extra amplitude (%); entries follow
Give the value in % but do not write % after it.

Consider the worked cases shown below.
3B5 (antibody, V domains shown, also called 3B5wt) VH: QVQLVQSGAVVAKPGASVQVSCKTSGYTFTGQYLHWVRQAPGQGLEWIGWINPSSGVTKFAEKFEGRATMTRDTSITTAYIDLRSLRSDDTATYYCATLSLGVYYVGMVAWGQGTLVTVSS VL: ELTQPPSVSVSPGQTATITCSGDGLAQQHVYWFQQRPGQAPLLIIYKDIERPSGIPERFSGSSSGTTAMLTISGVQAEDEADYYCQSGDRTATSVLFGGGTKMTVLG    93
4D3 (antibody, human IgG1, kappa, L234A L235A, V domains shown) VH: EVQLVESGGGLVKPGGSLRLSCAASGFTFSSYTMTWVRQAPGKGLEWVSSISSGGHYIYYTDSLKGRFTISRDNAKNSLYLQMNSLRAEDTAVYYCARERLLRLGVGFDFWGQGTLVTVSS VL: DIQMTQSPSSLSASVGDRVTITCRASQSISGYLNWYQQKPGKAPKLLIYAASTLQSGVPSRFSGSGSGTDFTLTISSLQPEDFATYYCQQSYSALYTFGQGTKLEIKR    5.2
3D9b (antibody, human IgG1, kappa, L234A L235A, V domains shown) VH: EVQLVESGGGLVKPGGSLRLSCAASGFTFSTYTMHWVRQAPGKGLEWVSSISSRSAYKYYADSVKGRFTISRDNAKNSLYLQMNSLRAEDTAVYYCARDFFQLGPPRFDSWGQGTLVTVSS VL: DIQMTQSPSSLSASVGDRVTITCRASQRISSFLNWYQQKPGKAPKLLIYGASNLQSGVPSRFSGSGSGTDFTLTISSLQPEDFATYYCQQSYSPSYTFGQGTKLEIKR    14.9
3F6c (antibody, human IgG1, kappa, L234A L235A, V domains shown) VH: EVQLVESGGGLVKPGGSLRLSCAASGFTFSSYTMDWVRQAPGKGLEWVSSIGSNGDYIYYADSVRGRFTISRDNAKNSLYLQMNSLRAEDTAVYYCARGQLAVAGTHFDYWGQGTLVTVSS VL: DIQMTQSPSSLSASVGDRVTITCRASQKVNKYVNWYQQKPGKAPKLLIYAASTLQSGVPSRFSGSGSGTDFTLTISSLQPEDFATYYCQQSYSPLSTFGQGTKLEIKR    5.8

With those in mind, consider the next binder.
*Q* Suppose we examine the binder 3D10a (antibody, human IgG1, kappa, L234A L235A, V domains shown) VH: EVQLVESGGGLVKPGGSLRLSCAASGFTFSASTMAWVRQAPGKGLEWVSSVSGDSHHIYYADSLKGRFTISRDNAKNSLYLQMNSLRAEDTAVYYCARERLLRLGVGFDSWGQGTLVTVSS VL: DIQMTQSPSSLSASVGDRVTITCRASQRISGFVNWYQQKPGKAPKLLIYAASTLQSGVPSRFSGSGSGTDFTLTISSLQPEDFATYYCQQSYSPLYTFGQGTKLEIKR ; what extra amplitude (%) value has been reported?
*A* 7.2
